Tested on: KM12 colon
Test: NCI tumour cell line growth inhibition, 48 h
Where a SMILES comes first, the peptide text is derived from it. The star is where a group is joined. Fmoc = O=C(OCC1c2ccccc2-c2ccccc21)*; Boc = CC(C)(C)OC(=O)*
readout: TGI

Qu. Find the measured TGI of CC(C)(C)OC(=O)NCCCCC(NC(=O)C(Cc1c[nH]c2ccccc12)NC(=O)OCC1c2ccccc2-c2ccccc21)C(=O)O (stereo not drawn) (Fmoc-Trp-Lys(Boc)-OH; configuration not given here) and report it.
Ans. > 100 µM

Qu. Identify measured TGI corresponding to CC(C)C(=O)CP(=O)(O)O
Ans. > 100 µM

Qu. Determine its reported TGI: O=C(NC(Cc1ccccc1)P(=O)(O)c1ccccc1)OCc1ccccc1 (stereo not drawn)
Ans. > 100 µM

###

Kindly state TGI for each of the entries shown.
Tested on: HS 578T breast
Assay: NCI tumour cell line growth inhibition, 48 h

Qu. Let me know recorded TGI for CC(C)[C@H]1NC(=O)[C@H]2N=C(O[C@@H]2C)[C@@H]2CCCN2C(=O)[C@H](Cc2ccccc2)NC(=O)[C@@H]2COC(=N2)[C@@H](Cc2ccccc2)NC(=O)[C@@H]2COC1=N2 , thanks.
Ans. > 100 µM

Qu. Indicate the recorded TGI value for this molecule: N#Cc1c(Nc2ccccc2)[n+]([O-])c2ccc(Cl)cc2[n+]1[O-]
Ans. > 72.8 µM

Qu. Please report TGI for the following molecule: COc1ccc(-c2c(C#N)cnc(N)c2-c2nc3cc(C)c(C)cc3[nH]2)cc1
Ans. > 100 µM

###

Test system: T-47D breast
Test: NCI tumour cell line growth inhibition, 48 h
I'd appreciate it if you could supply TGI values for the items below.

Qu. Identify TGI associated with the compound COc1cc(OC)c2c(c1Cl)O[C@]1(C2=O)C(OCc2ccccc2)=CC(=O)C[C@H]1C
Ans. 67.8 µM

Qu. Note TGI for the compound shown: Cc1ccc2nnc(NS(=O)(=O)c3cc(C)c(Cl)cc3S)n2n1
Ans. > 100 µM

Qu. Read off the recorded TGI for CC(=O)NC1=CC(=O)C=C(Cl)C1=O
Ans. > 100 µM

Qu. Let me know recorded TGI for O=C(NC(Cc1ccccc1)P(=O)(O)c1ccccc1)OCc1ccccc1 (configuration not stated) , thanks.
Ans. > 100 µM

Qu. Indicate the recorded TGI value for this compound: CC(=O)OC[C@]12CCC3[C@@]4(C)CCCC(C)(C)C4CC[C@@]3(C)C1CC(C1=CC(=O)OC1O)O2 (some centres not stated)
Ans. 3.79 µM

Qu. Kindly indicate its recorded TGI. Item: O=C(CC(C(=O)c1cccs1)c1ccccc1)c1ccccc1O (configuration not stated)
Ans. > 40 µM

Qu. Note down TGI recorded for O=C(N/N=C/c1cccc(O)c1)c1ccc(C(F)(F)F)nc1Nc1cccc(C(F)(F)F)c1
Ans. 7.08 µM

Qu. For the compound Cn1c2c(c3c(=O)[nH]ncc31)CCCc1ccccc1-2 , give its measured TGI value.
Ans. > 100 µM

Qu. Specify measured TGI for Nc1c(O)c(C(=O)O)cc2ccccc12 .
Ans. > 100 µM

Qu. For COc1cc(C2SC(N)=Nc3c2c(C)nn3C(=O)c2ccc(Cl)cc2)ccc1O (configuration not stated) , write its TGI.
Ans. > 10 µM

Qu. Could you please provide reported TGI for Cn1c(=O)c2[nH]cnc2n(C)c1=O.[CH2-]C(Cc1cccc2cc(C(=O)O)c(=O)oc12)OC.[Hg+2].[OH-] (configuration not stated) ? Thanks!
Ans. 63.5 µM

Qu. Fill in TGI for record Cc1cccc(/C=C2\CCCCCC2=O)c1
Ans. > 100 µM

###

System: SW-620 colon
Experiment: NCI tumour cell line growth inhibition, 48 h
readout: TGI

Qu. Fetch value of TGI on SW-620 colon for C=[N+](CNC(=O)CNC(=O)C(Cc1ccccc1)NC(=O)OC(C)(C)C)C(=O)CNC(=O)C(Cc1ccccc1)NC(=O)OC(C)(C)C (stereo unspecified) .
Ans. > 100 µM

Qu. Under SW-620 colon, report TGI for Cc1ccc(C)c(C(=N)c2ccccc2Cc2ccccc2)c1
Ans. > 100 µM

Qu. Give TGI for Nc1ccc2c(c1)S(=O)(=O)c1cc(N)ccc1-2 tested on SW-620 colon.
Ans. > 100 µM

Qu. Give reported TGI for CN1CCN(Cc2ccc(NC(=O)c3[nH]ncc3Nc3cc(OC4CCCC4)ncn3)cc2)CC1 (SW-620 colon)
Ans. 7.25 µM

Qu. With SW-620 colon as the test system, provide measured TGI for this molecule: C=C(C)COC(=O)COCC(=O)OCC(=C)C
Ans. > 100 µM

Qu. Quote TGI with test system SW-620 colon for O=C(CN1CCN(c2ccccn2)CC1)Nc1ccc(Cl)cc1C(=O)c1ccccc1Cl
Ans. > 100 µM

Qu. Give TGI for this entry on SW-620 colon: COc1cc2c3c(n(CCCN4CCN(CCO)CC4)c(=O)c2cc1OC)-c1cc2c(cc1C3=O)OCO2
Ans. 24.7 µM

Qu. Give TGI; test system SW-620 colon; molecule CC1SC(c2cccc(Cl)c2)N(NC(=O)C(O)c2ccccc2)C1=O (stereo unspecified)
Ans. > 100 µM

Qu. Quote TGI with test system SW-620 colon for NC(=O)N=Nc1c2ccccc2n2[nH]ccc12
Ans. > 100 µM

Qu. Identify measured TGI obtained with SW-620 colon for N#CC1C(=O)NC(=O)C(C#N)C1c1ccc(Cl)c(Cl)c1 (stereo unspecified) .
Ans. 36.8 µM

Qu. Provide TGI, system SW-620 colon, entry CC1(C)N=C(N)N=C(N)N1CCCCc1ccccc1
Ans. > 100 µM

###

System: BT-549 breast
Experiment: NCI tumour cell line growth inhibition, 48 h
Numbered stars: 1 amine (or outer) side, 2 acyl side, 3 side chain; on linkers, the order of the positions; unused ones are H or OH. Bridge positions count the residues as written; N and C are the ends. Square brackets hold non-standard residues; d marks the D form. Peptide text beside a SMILES is read from it. I, II: the chains in the order shown. Actinocin(1to9) = Cc1c2oc3c(C)ccc(C(=O)[*:2])c3nc-2c(C(=O)[*:1])c(N)c1=O; NMeV = CN[CH](C(=O)O)C(C)C; Sar = CNCC(=O)O
readout: TGI (µM)
Please state the figure in µM; there is no need to write the unit.

Qu. // Input: CCC(C)C1NC(=O)C(NC(=O)c2c3nc4c(C(=O)NC5C(=O)NC(C(C)C)C(=O)N6CCCC6C(=O)N(C)CC(=O)N(C)C(C(C)C)C(=O)OC5C)ccc(C)c4oc-3c(C)c(=O)c2N)C(C)OC(=O)C(C(C)C)N(C)C(=O)CN(C)C(=O)C2CCCN2C1=O (stereo unspecified) (I: TIP[Sar][NMeV] / II: TVP[Sar][NMeV]; ester I:1-I:C, II:1-II:C; linker I:N-II:N via Actinocin(1to9); configuration not given here) . Output its TGI only.
Ans. 0.0627

Qu. Tell me TGI reported for C=C1C(OCCO)OC2O[C@]3(C)CCC4[C@H](C)CCC1C24OO3 (stereo partly specified)
Ans. 71.2

Qu. Give the reported value of TGI for this record: CCCCCCCCCCCCCCCC(N)c1ccccc1 (stereo unspecified)
Ans. 3.11

###

Test system: NCI/ADR-RES ovarian
Assay: NCI tumour cell line growth inhibition, 48 h
Assign TGI to each entry below.

Qu. Look up TGI of Fc1ccc(C(OCCN2CCC3CCC(C2)N3C/C=C/c2cccnc2)c2ccc(F)cc2)cc1 (stereo unspecified) and report it.
Ans. 25.7 µM

Qu. Read the entry Cn1c2c(c3c(=O)[nH]ncc31)CCCc1ccccc1-2 and write its reported TGI.
Ans. > 100 µM

Qu. Fill in TGI for record O=C(O)CCCN=C(C(=NCCCC(=O)O)c1ccccc1)c1ccccc1
Ans. > 100 µM

Qu. Give the value of TGI reported for the following: COc1cc(C2SC(N)=Nc3c2c(C)nn3C(=O)c2ccc(Cl)cc2)ccc1O (stereo unspecified)
Ans. > 10 µM

Qu. Respond only with TGI recorded for O=C1/C(=C/c2cccc(F)c2)CN(C(=O)C(Cl)Cl)C/C1=C\c1cccc(F)c1
Ans. 1.49 µM

Qu. Given C[C@H](c1ccc(Cl)cc1[N+](=O)[O-])N1C(=O)c2cc(I)ccc2NC(=O)[C@H]1c1ccc(Cl)cc1 , respond with its TGI.
Ans. > 100 µM

###

Consider the following compounds; for each one, report its TGI.
Test system: SF-268 CNS
Test: NCI tumour cell line growth inhibition, 48 h
Numeric only. Scale: µM

Qu. Item C=C1CC(CC(=O)C(C)CC2CC(=C)C(=O)O2)OC1=O (stereo not given) : provide TGI
Ans. 48.6

Qu. State its TGI for this compound: COc1cc(C2S/C(=C/c3ccccc3)C(=O)N2c2ccccn2)cc(OC)c1OC (stereo not given)
Ans. 36.2

Hello, the source for this data is PubChem BioAssay (NCI), in case you need it.
